All values here come from patent US10973815B2.

assay.details: Oral bioavailability in macaques
Parameters: species or system Macaca fascicularis
conditions.used: cynomolgus monkey, in vivo
readout.type: bioavailability

compound="CCN(CC)C(=O)c1ccc(C(c2cccc(O)c2)N2C[C@@H](C)N(Cc3cccc(F)c3)C[C@@H]2C)cc1 (stereo partly shown)" result="1 to 2%"
